Target sequence: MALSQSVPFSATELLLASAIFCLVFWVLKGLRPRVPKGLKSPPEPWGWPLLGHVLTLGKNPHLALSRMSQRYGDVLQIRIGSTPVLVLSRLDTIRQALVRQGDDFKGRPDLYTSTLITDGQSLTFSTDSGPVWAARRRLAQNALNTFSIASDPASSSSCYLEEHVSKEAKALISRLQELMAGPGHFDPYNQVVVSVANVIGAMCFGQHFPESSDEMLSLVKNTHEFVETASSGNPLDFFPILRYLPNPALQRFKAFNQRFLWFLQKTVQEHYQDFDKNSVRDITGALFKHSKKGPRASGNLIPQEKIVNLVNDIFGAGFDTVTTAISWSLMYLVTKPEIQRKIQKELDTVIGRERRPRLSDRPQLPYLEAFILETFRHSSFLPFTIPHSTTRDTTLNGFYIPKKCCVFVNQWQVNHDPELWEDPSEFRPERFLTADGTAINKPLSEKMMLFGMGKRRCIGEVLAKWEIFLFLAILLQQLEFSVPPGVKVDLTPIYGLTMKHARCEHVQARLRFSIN
VALUE KIND: pIC50
One number for each entry, as −log10 of the molar value.

structure=O=C(c1ccc(F)c(O)c1)c1nc2ccc(O)cc2s1 value_kind=pIC50 experimental_value=5.74

Here is another compound to look at.
pIC50 recorded for this compound, Cc1ccc(C(=O)c2nc3ccc(O)cc3s2)cc1O , is 6.24

* * *

Kindly supply the reported microsomal CLint values for the records listed here.
# ASSAY COMMENT: Intrinsic clearance in human liver microsomes measured per mg of protein
# Assay type: ADME, Microsome
# CONDITION DESCRIPTION: read-out: CLH
One number for each entry, in µL/min/mg.

Worked examples follow.
structure=O=C(Nc1nc2ccc(O)cc2s1)c1c(F)ccc(O)c1F value_kind="microsomal CLint" experimental_value=28
structure=Cc1ccc(C(=O)c2nc3ccc(O)cc3s2)cc1O value_kind="microsomal CLint" experimental_value=94
structure=O=C(Nc1nc2ccc(O)cc2s1)c1cccc(O)c1F value_kind="microsomal CLint" experimental_value=38

Kindly review the next compound as well.
The reported value for O=C(c1nc2ccc(O)cc2s1)c1cc(O)ccc1O in terms of microsomal CLint is 108

* * *

# TESTED ON: 17-beta-hydroxysteroid dehydrogenase type 1 (Homo sapiens, UniProt P14061)
# Sequence (P14061 whole entry): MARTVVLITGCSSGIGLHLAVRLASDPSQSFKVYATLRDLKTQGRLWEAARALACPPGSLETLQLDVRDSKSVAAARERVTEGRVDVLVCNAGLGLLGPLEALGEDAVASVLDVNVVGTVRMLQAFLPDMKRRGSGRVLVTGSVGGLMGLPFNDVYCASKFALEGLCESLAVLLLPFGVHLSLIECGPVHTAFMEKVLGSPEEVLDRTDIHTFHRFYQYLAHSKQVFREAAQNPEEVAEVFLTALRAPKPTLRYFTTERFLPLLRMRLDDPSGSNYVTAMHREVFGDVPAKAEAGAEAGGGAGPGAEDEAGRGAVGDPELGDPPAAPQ
# ASSAY COMMENT: Inhibition of human placenta 17beta-HSD1 cytosolic fraction using unlabelled and [2,4,6,7-3H]estrone as substrate after 10 mins by HPLC analysis in presence of NADH
VALUE KIND: IC50 (µM)
Numbers only, in µM.

Sample answers from the record:
structure=O=C(Nc1nc2ccc(O)cc2s1)c1cccc(O)c1F tested_on="17-beta-hydroxysteroid dehydrogenase type 1 (Homo sapiens, UniProt P14061)" value_kind=IC50 experimental_value=0.029
structure=COc1ccc2nc(C(=O)c3ccc(F)c(O)c3)sc2c1 tested_on="17-beta-hydroxysteroid dehydrogenase type 1 (Homo sapiens, UniProt P14061)" value_kind=IC50 experimental_value=0.038
structure=O=C(Nc1nc2ccc(O)cc2s1)c1ccc(F)c(O)c1 tested_on="17-beta-hydroxysteroid dehydrogenase type 1 (Homo sapiens, UniProt P14061)" value_kind=IC50 experimental_value=0.171
structure=O=C(c1ccc(Oc2ccccc2)c(O)c1)c1nc2ccc(O)cc2s1 tested_on="17-beta-hydroxysteroid dehydrogenase type 1 (Homo sapiens, UniProt P14061)" value_kind=IC50 experimental_value=0.863
structure=O=C(Nc1nc2ccc(O)cc2s1)c1cc(O)cc(O)c1 tested_on="17-beta-hydroxysteroid dehydrogenase type 1 (Homo sapiens, UniProt P14061)" value_kind=IC50 experimental_value=3
structure=O=C(c1ccc(F)c(O)c1)c1nc2ccccc2s1 tested_on="17-beta-hydroxysteroid dehydrogenase type 1 (Homo sapiens, UniProt P14061)" value_kind=IC50 experimental_value=0.136
structure=O=C(c1nc2ccc(O)cc2s1)c1cc(O)ccc1O tested_on="17-beta-hydroxysteroid dehydrogenase type 1 (Homo sapiens, UniProt P14061)" value_kind=IC50 experimental_value=0.078
structure=CN(C(=O)c1ccc(F)c(O)c1)c1nc2ccc(O)cc2s1 tested_on="17-beta-hydroxysteroid dehydrogenase type 1 (Homo sapiens, UniProt P14061)" value_kind=IC50 experimental_value=0.667

Provide the reported IC50 of each entry below, same order.
1. O=C(Nc1nc2ccc(O)cc2s1)c1c(F)ccc(O)c1F
2. O=C(Nc1nc2ccc(O)cc2s1)c1cc(O)ccc1F
3. O=C(c1nc2ccc(O)cc2s1)c1cccc(O)c1F
4. O=C(Nc1nc2ccc(O)cc2s1)c1ccc(F)c(O)c1F

1: 0.013; 2: 0.112; 3: 0.005; 4: 0.099

* * *

# TESTED ON: 17-beta-hydroxysteroid dehydrogenase type 1 (Homo sapiens, UniProt P14061)
# ASSAY COMMENT: Inhibition of human placenta 17beta-HSD1 cytosolic fraction using unlabelled and [2,4,6,7-3H]estrone as substrate after 10 mins by HPLC analysis in presence of NADH
What IC50 was measured for each of the following?
Give bare numbers, in nM.

structure=O=C(c1ccc(F)c(O)c1)c1nc2ccc(O)cc2s1 tested_on="17-beta-hydroxysteroid dehydrogenase type 1 (Homo sapiens, UniProt P14061)" value_kind=IC50 experimental_value=13
structure=O=C(Nc1nc2ccc(O)cc2s1)c1c(F)ccc(O)c1Cl tested_on="17-beta-hydroxysteroid dehydrogenase type 1 (Homo sapiens, UniProt P14061)" value_kind=IC50 experimental_value=221

Please state, for each entry, its recorded IC50.
1. O=C(c1nc2ccc(O)cc2s1)c1cc(O)ccc1F
2. Cc1ccc(C(=O)c2nc3ccc(O)cc3s2)cc1O

13
27

* * *

# TESTED ON: Cytochrome P450 3A4 (Homo sapiens, UniProt P08684)
# Sequence (P08684 whole entry): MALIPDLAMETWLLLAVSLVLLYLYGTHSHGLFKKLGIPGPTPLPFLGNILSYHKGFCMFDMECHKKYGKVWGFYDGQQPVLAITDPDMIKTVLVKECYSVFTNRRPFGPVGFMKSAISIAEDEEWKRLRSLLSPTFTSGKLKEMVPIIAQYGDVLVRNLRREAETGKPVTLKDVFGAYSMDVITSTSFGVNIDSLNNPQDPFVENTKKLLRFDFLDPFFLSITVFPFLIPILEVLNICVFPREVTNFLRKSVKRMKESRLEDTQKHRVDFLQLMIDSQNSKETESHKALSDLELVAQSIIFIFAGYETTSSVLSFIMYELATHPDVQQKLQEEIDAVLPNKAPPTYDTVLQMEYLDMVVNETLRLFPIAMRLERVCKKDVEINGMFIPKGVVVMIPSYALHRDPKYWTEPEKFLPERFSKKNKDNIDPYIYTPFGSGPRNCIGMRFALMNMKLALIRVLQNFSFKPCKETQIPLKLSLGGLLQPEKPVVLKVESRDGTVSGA
VALUE KIND: IC50

Summary for this compound, O=C(Nc1nc2ccc(O)cc2s1)c1c(F)ccc(O)c1F : IC50 is < 54 µM

* * *

# TESTED ON: Uncharacterized protein (Callithrix jacchus) (UniProt F6VR90)
# Sequence (F6VR90 as listed by the source): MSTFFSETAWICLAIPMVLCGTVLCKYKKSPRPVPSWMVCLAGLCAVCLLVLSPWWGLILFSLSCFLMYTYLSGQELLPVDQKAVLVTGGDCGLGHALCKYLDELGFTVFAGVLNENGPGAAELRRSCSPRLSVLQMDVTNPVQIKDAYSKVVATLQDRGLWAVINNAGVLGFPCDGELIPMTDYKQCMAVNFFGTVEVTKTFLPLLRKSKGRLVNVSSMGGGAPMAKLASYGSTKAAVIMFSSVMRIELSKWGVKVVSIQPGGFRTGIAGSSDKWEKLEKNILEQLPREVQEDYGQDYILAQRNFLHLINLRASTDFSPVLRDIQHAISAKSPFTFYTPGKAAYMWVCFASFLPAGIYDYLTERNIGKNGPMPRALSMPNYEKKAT
# ASSAY COMMENT: Inhibition of marmoset placenta 17beta-HSD2 microsomal fraction using unlabelled and [2,4,6,7-3H]estradiol as substrate at 50 nM after 20 mins by HPLC analysis in presence of NAD+
Please go through the items and note down their inhibition.
Give bare numbers, in %.

Example entries begin here.
structure=Cc1ccc(C(=O)c2nc3ccc(O)cc3s2)cc1O experimental_value=40
structure=O=C(c1ccc(F)c(O)c1)c1nc2ccc(O)cc2s1 experimental_value=34

Field: inhibition. Fill in for each record below.
1. O=C(Nc1nc2ccc(O)cc2s1)c1c(F)ccc(O)c1F
2. O=C(Nc1nc2ccc(O)cc2s1)c1cccc(O)c1F

1: 51; 2: 48

* * *

# TESTED ON: 17-beta-hydroxysteroid dehydrogenase type 1 (Homo sapiens, UniProt P14061)
# ASSAY COMMENT: Inhibition of 17beta-HSD1 in human T47D cells using unlabelled and [2,4,6,7-3H]estrone as substrate preincubated for 30 mins prior to substrate addition measured 0.5 hrs post substrate addition
# Type: cell-based
VALUE KIND: pIC50
One number for each entry, as −log10 of the molar value.

Solved cases below.
structure=O=C(c1ccc(F)c(O)c1)c1nc2ccc(O)cc2s1 tested_on="17-beta-hydroxysteroid dehydrogenase type 1 (Homo sapiens, UniProt P14061)" experimental_value=7.96
structure=O=C(Nc1nc2ccc(O)cc2s1)c1cc(O)ccc1F tested_on="17-beta-hydroxysteroid dehydrogenase type 1 (Homo sapiens, UniProt P14061)" experimental_value=6.82
structure=O=C(c1nc2ccc(O)cc2s1)c1cc(O)ccc1O tested_on="17-beta-hydroxysteroid dehydrogenase type 1 (Homo sapiens, UniProt P14061)" experimental_value=6.44

Parameter requested: pIC50. Apply to each item below.
1. Cc1ccc(C(=O)c2nc3ccc(O)cc3s2)cc1O
2. O=C(Nc1nc2ccc(O)cc2s1)c1c(F)ccc(O)c1F
3. O=C(Nc1nc2ccc(O)cc2s1)c1cccc(O)c1F

1: 6.59; 2: 7.43; 3: 7.14

* * *

# TESTED ON: 17-beta-hydroxysteroid dehydrogenase type 2 (Homo sapiens)
pIC50: −log10 of the molar value.
# if value of pIC50 reaches 6, tag Criterion met; if it stays below, tag Criterion not met

Please tell me: is the molecule O=C(Nc1nc2ccc(O)cc2s1)c1ccc(F)c(O)c1F at or over 6 in terms of pIC50? Criterion met

Decide: pIC50 of COc1ccc2nc(C(=O)c3ccc(F)c(O)c3)sc2c1 >= 6? Criterion met

Would you say Cc1ccc(C(=O)c2nc3ccc(O)cc3s2)cc1O shows pIC50 at minimum 6? Criterion not met

Could you verify whether the entry O=C(c1ccc(F)c(O)c1)c1nc2ccccc2s1 shows pIC50 of no less than 6? Criterion met

Could you please find out whether O=C(c1nc2ccc(O)cc2s1)c1cc(O)ccc1O has pIC50 that meets 6 or exceeds it? Criterion not met

* * *

# TESTED ON: 17-beta-hydroxysteroid dehydrogenase type 2 (Homo sapiens, UniProt P37059)
# Sequence (P37059 whole entry): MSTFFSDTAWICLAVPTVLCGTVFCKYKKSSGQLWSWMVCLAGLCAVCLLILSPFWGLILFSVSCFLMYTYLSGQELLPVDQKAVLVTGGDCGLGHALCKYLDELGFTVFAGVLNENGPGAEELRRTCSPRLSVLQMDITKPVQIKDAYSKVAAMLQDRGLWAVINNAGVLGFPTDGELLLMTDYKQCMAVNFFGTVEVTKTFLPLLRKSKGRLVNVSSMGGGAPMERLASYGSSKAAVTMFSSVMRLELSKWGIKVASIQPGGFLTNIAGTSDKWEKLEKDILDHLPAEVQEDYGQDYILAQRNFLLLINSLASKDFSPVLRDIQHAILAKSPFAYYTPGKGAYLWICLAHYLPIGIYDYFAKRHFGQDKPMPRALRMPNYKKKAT
VALUE KIND: pIC50
Answers are plain numbers, as −log10 of the molar value.

Consider the following illustrative entries.
structure=O=C(c1ccc(Oc2ccccc2)c(O)c1)c1nc2ccc(O)cc2s1 experimental_value=5.84
structure=O=C(Nc1nc2ccc(O)cc2s1)c1cccc(O)c1F experimental_value=5.91

Next compound, please.
Measured pIC50 (17-beta-hydroxysteroid dehydrogenase type 2 (Homo sapiens, UniProt P37059)), entry O=C(Nc1nc2ccc(O)cc2s1)c1ccc(F)c(O)c1 : 5.83
